Let's look at some binders and their measured pIC50.
TARGET_OR_TEST_SYSTEM: T1, soluble cynomolgus BLyS (cynomolgus, UniProt A0A2K5V2X4 134-285)
T1 construct: Soluble form; also called cyBLyS; Soluble cyBLyS
EXPERIMENT: ELISA, soluble cyBLyS
Please keep in mind that pIC50 is minus log10 of the molar concentration; only the number is needed.

Known results for binders:
BINDER	pIC50
1F4 IgG expressed in HEK293 cells (antibody, V domains shown, IgG from HEK293-FreeStyle cells; also called IF4) VH: QVTLKESGPTLVKPTQTLTLTCTFSGFSLSTSRVGVGWIRQPPGKALEWLARIDWDDDKYYSTSLKTRLTISKDTSKNQVVLTMTNMDPVDTATYYCARTHTYYDILTGYSYHVYFDYWGQGTLVTVSS VL: QSALTQPPSASGSRGQSVSISCSGSRSDIGYYNYVSWYQQHPGKAPKLIIFDVNKRPSGVPDRFSGSKSGNTASLTVSGLQPEDEADYYCASYGGRNNLLFGGGTQLTVLG	9.96
8D12 IgG expressed in HEK293 cells (antibody, V domains shown, IgG from HEK293-FreeStyle cells; also called 8D12 (293)) VH: QVQLVQSGAEVKKPGASVKVSCKASGYTFTSYAMHWVRQAPGQRLEWMGWINAGNGNTKYSQKFQGRVTITRDTSASTAYMELSSLRSEDTAVYYCARAYYDILTGYSVYGMDVWGQGTTVTVSS VL: EIVLTQSPATLSLSPGERATLSCRANESVGNYLAWYQQKPGQAPRLLIYGASRRATGIPDRFSGSGSGTDFTLTISRLEPEDFAVYYCQQYGSSLLTFGGGTKVEIKR	10.10

# evaluate next
Qu. Retrieve pIC50 measured for 5B7 IgG expressed in HEK293 cells (antibody, V domains shown, also called 5B7 (293); 5B7-HEK293) VH: QVQLVQSGAEVKKPGASVKVSCKASGGTFSSYAISWVRQAPGQGLEWMGGIIPIFGTANYAQKFQGRVTITADKSTSTAYMELSSLRSEDTAVYYCARVDYDILTGYYMGYFDYWGQGTLVTVSS VL: DIVMTQSPATLSLSPGERATLSCRASQSVSSYLAWYQQKPGQAPRLLIYDASNRATGIPARFSGSGSGTDFTLTISSLEPEDFAVYYCQQRSNWPITFGQGTRLEIKR and print it.
Ans. 10.10
